Target: TRAIL R2 receptor on HCT-116 or Jurkat cells (UniProt O14763 56-440, limits assumed)
Assay: cell-based or functional assay
Bridge positions count the residues as written; N and C are the ends.
Reported EC50, Jurkat proliferation assay (apoptosis, MTT) is given for each of the following binders.

1) Ac-WDCLDNRIGRRQCVKL-NH2 (disulfide 3-13; also: homodimer via IPA linker, site not given here) [peptide homodimer based on the peptide monomer amino acid sequence of SEQ ID NO: 19, IPA linker]
1400 to 4020 nM

Now for the binder whose EC50, Jurkat proliferation assay (apoptosis, MTT) we want.
*Q* If you can, please state the reported EC50, Jurkat proliferation assay (apoptosis, MTT) value of Ac-WDCLVDRPGRRQCVRLERK-NH2 (disulfide 3-13 (inferred); also: homodimer via diglycolic acid (DIG) linker, site not given here) [peptide homodimer based on the peptide monomer amino acid sequence of SEQ ID NO: 30, DIG linker] .
*A* 611 to 1090 nM
